Values compiled from PubChem BioAssay (NCATS).

test: Viability qHTS for spleen associated tyrosine kinase inhibitor (SYKi) drug resistant MV4-11 cells (AID 1963824); conditions: SYKi-resistant MV4-11 viability, CellTiter-Glo, 72 h; series mostly up to 45 µM; also: nearly all actives have a fitted effect of over 35% in size
Inconclusive results are not listed. The source made the active and inactive calls. Calls follow the shape of the dose curve; as a rule, active = well fitted cell-killing curve with a large enough effect; inconclusive = small, poorly fitted or top-dose-only effect, or effect the other way; inactive = no such curve, though single readings can be large or run the other way.
Labels: active, inactive

compound | category
C[C@H](NC(=O)/C(C#N)=C/c1cccc(Br)n1)c1ccccc1 | active
CO[C@@]1(NC(=O)CSC[C@@H](N)C(=O)O)C(=O)N2C(C(=O)O)=C(CSc3nnnn3C)CS[C@@H]21 | inactive
COC(=O)N[C@H](C(=O)N[C@@H](Cc1ccccc1)[C@@H](O)CN(Cc1ccc(-c2ccccn2)cc1)NC(=O)[C@@H](NC(=O)OC)C(C)(C)C)C(C)(C)C | inactive
Cn1c(NC[C@@H](N)Cc2ccccc2)nc(-c2ccncc2)c(-c2ccc3ccccc3c2)c1=O | active
CC(C)(NS(=O)(=O)c1ccc2c(Cl)cnc(N=C(N)N)c2c1)C(=O)O | inactive
CC(=O)Nc1cccc(O)c1 | inactive
NS(=O)(=O)c1cc2c(cc1Cl)NC(CC1CCCC1)NS2(=O)=O (stereo not drawn) | inactive
C=CCNc1c(O)cc2c(O)c1C[C@@H](C)C[C@H](OC)[C@H](O)[C@@H](C)/C=C(/C)[C@H](OC(N)=O)[C@@H](OC)/C=C\C=C(\C)C(=O)N2 | active
